B1: PRPH (parent)
chain: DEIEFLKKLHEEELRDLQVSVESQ

# Variants of: B1
# Assay Procedure: protein stability index of a GFP-peptide fusion (GPS, HEK-293T) (PSI 1-6); higher = more stable;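 note: lentivirally expressed fusions sorted by FACS into six bins by GFP to DsRed ratio, PSI derived from sequencing read proportions per bin multiplied by bin number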
# Test Conditions: c terminus: a fixed tail appended
Quantity Kind: protein stability index

Input: Could you tell me which protein stability index is on file for E4S ?
Output: 4.93

Input: Could you tell me which protein stability index is on file for E22R ?
Output: 4.3

Input: Could you tell me which protein stability index is on file for R15W ?
Output: 3.91

Input: Could you tell me which protein stability index is on file for E22Y ?
Output: 3.75

Input: Could you tell me which protein stability index is on file for V19Q ?
Output: 5.01

Input: Could you tell me which protein stability index is on file for S20K ?
Output: 4.75

Input: Could you tell me which protein stability index is on file for H10F ?
Output: 3.47

Input: Could you tell me which protein stability index is on file for D16L ?
Output: 2.97

Input: Could you tell me which protein stability index is on file for F5D ?
Output: 5.27

Input: Could you tell me which protein stability index is on file for K8M ?
Output: 4.25

Input: Could you tell me which protein stability index is on file for V19L ?
Output: 4.85

Input: Could you tell me which protein stability index is on file for K7S ?
Output: 3.85

Cited source for all entries: the supplement of paper PMC10567573
